Experiment: Compound were evaluated for its binding affinity against vitamin K dependent carboxylation
property-measured: Ki (mM)
Kindly provide the numeric value in mM only, without the unit symbol.

Provide only the value of recorded Ki for `CC(C)C[C@H](NC(=O)[C@@H](N)Cc1ccccc1)C(=O)N[C@@H](CCC1N=NN=N1)C(=O)N[C@@H](CCC1N=NN=N1)C(=O)N[C@H](C(=O)O)C(C)C`
3

Provide only the value of recorded Ki for `CC(C)C[C@H](NC(=O)[C@@H](N)Cc1ccccc1)C(=O)N[C@@H](CCc1nn[nH]n1)C(=O)N[C@@H](CCc1nn[nH]n1)C(=O)N[C@H](C(=O)O)C(C)C`
3.1
